Target: T1, wild type human CD47 (Acro Biosystems, cat. no. CD7-H5227) (human, UniProt Q08722 19-139)
T1 construct: Bought protein used as SPR analyte; also called Human CD47 wt; wild-type CD47
T1 sequence (Q08722 19-139 limits assumed): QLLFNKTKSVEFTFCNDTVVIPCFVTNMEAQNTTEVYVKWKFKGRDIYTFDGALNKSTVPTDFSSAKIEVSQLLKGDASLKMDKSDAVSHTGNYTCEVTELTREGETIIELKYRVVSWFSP
Test: SPR, IgG captured, CD47 in flow; exp 2;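 also: rates derived from association and dissociation curves, KD estimated from them, C33G mutein used to avoid CD47 IgV homodimers for true monovalent affinity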

binder	koff / s⁻¹
108VH10 / 108VL10.Mb (antibody, V domains shown, 4D5-framework series; constant regions not restated for this series; also called VH10 VL10.Mb) VH: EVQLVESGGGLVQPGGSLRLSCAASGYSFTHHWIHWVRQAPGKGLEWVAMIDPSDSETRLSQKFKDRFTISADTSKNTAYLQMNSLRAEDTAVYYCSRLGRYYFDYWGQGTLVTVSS VL: DIQMTQSPSSLSASVGDRVTITCRASENVGTYISWYQQKPGKAPKLLIYAASNRYTGVPSRFSGSRSGTDFTLTISSLQPEDFATYYCGESYGHLYTFGQGTKVEIK	0.011
